Test: Metabolic stability in Sprague-Dawley rat liver microsomes assessed as intrinsic clearance at 1.75 uM incubated upto 60 mins in presence of NADPH by LC-MS analysis
Format: ADME, Microsome
Conditions: read-out: CLH
Readout Kind: microsomal CLint at 1.75 µM (µL/min/mg)
The answer is to be given in µL/min/mg; state only the numeric part.

q: Give its microsomal CLint at 1.75 µM value. Item: C=CC(=O)Nc1ccc(-c2nc(Nc3cc(C)[nH]n3)c3ccc(N4CCN(C)CC4)cc3n2)cc1
a: 71.3

* * *

Test: Cytotoxicity against human L02 cells assessed as inhibition of cell proliferation incubated for 48 hrs by CCK-8 assay
Type: toxicity, cell-based
Readout Kind: IC50 at 48 h (µM)
The answer is to be given in µM; state only the numeric part.

Consider the following illustrative entries.
1. CCC(=O)Nc1ccc(-c2nc(Nc3cc(C)[nH]n3)c3ccc(N4CCN(C)CC4)cc3n2)cc1 ... 24.7
2. C=CC(=O)Nc1ccc(-c2nc(Nc3cc(C)[nH]n3)c3ccc(N4CCN(C)CC4)cc3n2)cc1 ... 23.4
3. C=CC(=O)Nc1ccc(-c2nc(Nc3cc(C)[nH]n3)c3ccc(N4CCOCC4)cc3n2)cc1 ... 43.2
4. Cc1cc(Nc2nc(-c3ccccc3)nc3cc(N4CCN(C)CC4)ccc23)n[nH]1 ... 2.74
5. C=CC(=O)Nc1cc(-c2nc(Nc3cc(C)[nH]n3)c3ccc(N4CCN(C)CC4)cc3n2)ccc1C ... 34.2

// next item, IC50 at 48 h requested
q: Give its IC50 at 48 h value. Item: Cc1cc(Nc2cc(N3CCN(C)CC3)nc(/C=C/c3ccccc3)n2)n[nH]1
a: 42.6
